molecular target: T1, huFLT3-T227 stably expressed on Ramos cells (human, UniProt P36888 27-993); assay: FACS on cells
T1 construct: whole, on cells; also called FLT3 WT
Catalogue of binders with associated FACS geometric mean fold change over Jurkat parental
measure: FACS geometric mean fold change over Jurkat parental

{"columns": ["binder", "result"],
 "data": [
  ["Polypeptide No. 262 (scFv, V domains shown, scFv) VH: QVQLVQSGAEVKKPGASVKVSCKASGFTFSDYGYYMHWVRQAPGQGLEWMGWMDPSSGHTGYAQRFQGRVTMTRDTSTSTVYMELSSLRSEDTAVYYCAKDIGWGAFDIWGQGTTVTVSS VL: EIVMTQSPATLSVSPGERATLSCRASQRVGNTYLAWYQQKPGQAPRLLIYDVSARASGIPARFSGSGSGTEFTLTISSLQSEDFAVYYCQQYLSPPLTFGGGTKVEIKR", "10 to 30 fold"],
  ["Polypeptide No. 248 (scFv, V domains shown, scFv) VH: QVQLVQSGAEVKKPGASVKVSCKASGYTFTGYYMHWVRQAPGQGLEWMGVINPNGGSISYAQKFQGRVTMTRDTSTSTVYMELSSLRSEDTAVYYCAREGWFGEDGMDVWGQGTTVTVSS VL: DIQMTQSPSSLSASVGDRVTITCRASQDLDRYLAWYQQKPGKAPKLLIYAASSLQTGVPSRFSGSGSGTDFTLTISSLQPEDFATYYCQQYYSTPYTFGQGTKLEIKR", "2 to 10 fold"],
  ["Polypeptide No. 218 (scFv, V domains shown, scFv) VH: QVQLVQSGAEVKKPGASVKVSCKASGYSFTTHYMHWVRQAPGQGLEWMGIINPSGGSTRYAQKFQGRVTMTRDTSTSTVYMELSSLRSEDTAVYYCARGSSYYYYGVDVWGKGTTVTVSS VL: DIQMTQSPSSLSASVGDRVTITCRASQSISTWLAWYQQKPGKAPKLLIYAASSLQSGVPSRFSGSGSGTDFTLTISSLQPEDFATYYCQQAISFPLTFGGGTKVEIKR", "10 to 30 fold"],
  ["Polypeptide No. 290 (scFv, V domains shown, scFv) VH: QVQLVQSGAEVKKPGASVKVSCKASGGTFTSYYMHWVRQAPGQGLEWMGWISAYNGKTDYAQKFQGRVTMTRDTSTSTVYMELSSLRSEDTAVYYCARDQGYYYDSSGAFDIWGQGTLVTVSS VL: DIQMTQSPSSLSASVGDRVTITCRASQSISSYLNWYQQKPGKAPKLLIYDASNLETGVPSRFSGSGSGTDFTLTISSLQPEDFATYYCQQTYSAPPTFGQGTKLEIKR", "10 to 30 fold"],
  ["Polypeptide No. 269 (scFv, V domains shown, scFv) VH: QVQLVQSGAEVKKPGASVKVSCKASGGSFSSYALHWVRQAPGQGLEWMGLINPSGGRTSYAQKFQGRVTMTRDTSTSTVYMELSSLRSEDTAVYYCARDEGYATFDYWGQGTLVTVSS VL: EIVMTQSPATLSVSPGERATLSCRASQSISSSYLAWYQQKPGQAPRLLIYDVSARATGIPARFSGSGSGTEFTLTISSLQSEDFAVYYCQQYYSTPLTFGPGTKVDIKR", "10 to 30 fold"]
]}

Hey, just so you know, these numbers are from patent US20240101668A1.
